Test system: Klebsiella pneumoniae
Test: Antibacterial activity determined against gram-negativeK. pneumoniae 13383
Type: functional
experimental.endpoint: MIC (µM)

Example compounds with recorded MIC:
NCCCCCCNCc1ccc(Cn2c(C3CCNCC3)nc3cc(Cl)c(Cl)cc32)cc1 : 12
NC1CCN(Cc2ccc(Cn3c(C4CCNCC4)nc4cc(Cl)c(Cl)cc43)cc2)CC1 : 25
NCCCCNCc1ccc(Cn2c(C3CCNCC3)nc3cc(Cl)c(Cl)cc32)cc1 : 25

[A] NCCCCCCCCNCc1ccc(Cn2c(C3CCNCC3)nc3cc(Cl)c(Cl)cc32)cc1
[B] O=C1c2ccccc2C(=O)N1Cc1ccc(Cn2c(C3CCNCC3)nc3cc(Cl)c(Cl)cc32)cc1
[C] Clc1cc2nc(C3CCNCC3)n(Cc3ccc(CN4CCCNCC4)cc3)c2cc1Cl
List by increasing MIC. Dear reader, please state the labels in the requested order.
A, C, B
(A: 6 µM, C: 12 µM, B: 25 µM)

---

Tested on: Staphylococcus aureus
Assay: Antibacterial activity determined against gram-positive Staphylococcus aureus 13709
Type: functional
experimental.endpoint: MIC (µM)

NCCCCCCCCNCc1ccc(Cn2c(C3CCNCC3)nc3cc(Cl)c(Cl)cc32)cc1 : 6
NCCCCCCNCc1ccc(Cn2c(C3CCNCC3)nc3cc(Cl)c(Cl)cc32)cc1 : 6
O=C1c2ccccc2C(=O)N1Cc1ccc(Cn2c(C3CCNCC3)nc3cc(Cl)c(Cl)cc32)cc1 : 6

[A] Clc1cc2nc(C3CCNCC3)n(Cc3ccc(CNC4CCNCC4)cc3)c2cc1Cl
[B] CCCCCCNCc1ccc(Cn2c(C3CCNCC3)nc3cc(Cl)c(Cl)cc32)cc1
From the recorded data, which exceeds the other in MIC: A or B ? Respond with the label that goes with your answer.
A
(A: 6 µM, B: 3 µM)

---

System: Streptococcus pyogenes
Experiment: Antibacterial activity determined against gram-positive Streptococcus pyogenes 49399
Format: functional
experimental.endpoint: MIC (µM)

Recorded MIC, per entry:
NCCN(CCN)CCNCc1ccc(Cn2c(C3CCNCC3)nc3cc(Cl)c(Cl)cc32)cc1 : 3
NC1CCN(Cc2ccc(Cn3c(C4CCNCC4)nc4cc(Cl)c(Cl)cc43)cc2)CC1 : 6
Clc1cc2nc(C3CCNCC3)n(Cc3ccc(CNCCc4c[nH]cn4)cc3)c2cc1Cl : 6

[a] NCCCNCc1ccc(Cn2c(C3CCNCC3)nc3cc(Cl)c(Cl)cc32)cc1
[b] CCCCCCNCc1ccc(Cn2c(C3CCNCC3)nc3cc(Cl)c(Cl)cc32)cc1
[c] O=C1c2ccccc2C(=O)N1Cc1ccc(Cn2c(C3CCNCC3)nc3cc(Cl)c(Cl)cc32)cc1
Kindly order the items shown according to MIC, from the highest value down. Order the labels as requested and give them as your answer.
c, a, b

[I] Clc1cc2nc(C3CCNCC3)n(Cc3ccc(CN4CCNCC4)cc3)c2cc1Cl
[II] NCCCCCCCCNCc1ccc(Cn2c(C3CCNCC3)nc3cc(Cl)c(Cl)cc32)cc1
Of the pair I and II , name the member with the lesser recorded MIC. Selection: enter the item's label.
II
(II: 3 µM, I: 6 µM)

[1] NCCNCc1ccc(Cn2c(C3CCNCC3)nc3cc(Cl)c(Cl)cc32)cc1
[2] CCCCCNCc1ccc(Cn2c(C3CCNCC3)nc3cc(Cl)c(Cl)cc32)cc1
// which entry has the larger MIC value, 1 or 2 ? Record your answer as the label of the chosen record.
1
(1: 6 µM, 2: 3 µM)

[a] NCCCCNCc1ccc(Cn2c(C3CCNCC3)nc3cc(Cl)c(Cl)cc32)cc1
[b] NCCCCCCNCc1ccc(Cn2c(C3CCNCC3)nc3cc(Cl)c(Cl)cc32)cc1
Endpoint returns whichever of a and b has the numerically higher MIC. Write down the label attached to your selection.
a

---

Test system: Streptococcus pneumoniae
Test: Antibacterial activity determined against gram-positive Streptococcus pneumoniae 6303
Format: functional
experimental.endpoint: MIC (µM)

Example molecules with recorded MIC:
NCCNCc1ccc(Cn2c(C3CCNCC3)nc3cc(Cl)c(Cl)cc32)cc1 : 12
NCCCCCCNCc1ccc(Cn2c(C3CCNCC3)nc3cc(Cl)c(Cl)cc32)cc1 : 12

[1] Clc1cc2nc(C3CCNCC3)n(Cc3ccc(CN4CCCNCC4)cc3)c2cc1Cl
[2] NCCCCCCCCNCc1ccc(Cn2c(C3CCNCC3)nc3cc(Cl)c(Cl)cc32)cc1
Which one would you say has the larger MIC value: 1 , or 2 ? Answer with the label corresponding to your selection.
1
(1: 12 µM, 2: 6 µM)

---

System: Streptococcus pneumoniae
Experiment: Antibacterial activity determined against gram-positive Streptococcus pneumoniae 6303
Assay type: functional
experimental.endpoint: MIC (µM)

CCCCCNCc1ccc(Cn2c(C3CCNCC3)nc3cc(Cl)c(Cl)cc32)cc1 : 12
Clc1cc2nc(C3CCNCC3)n(Cc3ccc(CN4CCNCC4)cc3)c2cc1Cl : 12
NCCCCNCc1ccc(Cn2c(C3CCNCC3)nc3cc(Cl)c(Cl)cc32)cc1 : 25

[a] NCCN(CCN)CCNCc1ccc(Cn2c(C3CCNCC3)nc3cc(Cl)c(Cl)cc32)cc1
[b] Clc1cc2nc(C3CCNCC3)n(Cc3ccc(CNCCc4c[nH]cn4)cc3)c2cc1Cl
Which numeric MIC is bigger, that of a or that of b ? Lab log: write the label of the selected item as the result.
b
(b: 12 µM, a: 6 µM)

[1] CCCCCCNCc1ccc(Cn2c(C3CCNCC3)nc3cc(Cl)c(Cl)cc32)cc1
[2] NCCCNCc1ccc(Cn2c(C3CCNCC3)nc3cc(Cl)c(Cl)cc32)cc1
Returns: the argument ( 1 or 2 ) having the larger MIC. Indicate which entry you chose by stating its label.
2

[I] NC1CCN(Cc2ccc(Cn3c(C4CCNCC4)nc4cc(Cl)c(Cl)cc43)cc2)CC1
[II] Clc1cc2nc(C3CCNCC3)n(Cc3ccc(CNC4CCNCC4)cc3)c2cc1Cl
[III] O=C1c2ccccc2C(=O)N1Cc1ccc(Cn2c(C3CCNCC3)nc3cc(Cl)c(Cl)cc32)cc1
Please give the order of these compounds when sorted by MIC, largest value leading. Please list each label once, in the requested order.
I, II, III
(I: 25 µM, II: 12 µM, III: 6 µM)

---

Test system: Enterococcus faecalis
Assay: Antibacterial activity determined against Enterococcus faecalis ATCC 4200
Assay type: functional
experimental.endpoint: MIC (µM)

See these solved cases before continuing.
NCCCNCc1ccc(Cn2c(C3CCNCC3)nc3cc(Cl)c(Cl)cc32)cc1 : 25
NCCNCc1ccc(Cn2c(C3CCNCC3)nc3cc(Cl)c(Cl)cc32)cc1 : 12
NCCCCNCc1ccc(Cn2c(C3CCNCC3)nc3cc(Cl)c(Cl)cc32)cc1 : 12

[1] Clc1cc2nc(C3CCNCC3)n(Cc3ccc(CNC4CCNCC4)cc3)c2cc1Cl
[2] O=C1c2ccccc2C(=O)N1Cc1ccc(Cn2c(C3CCNCC3)nc3cc(Cl)c(Cl)cc32)cc1
[3] NCCCCCCCCNCc1ccc(Cn2c(C3CCNCC3)nc3cc(Cl)c(Cl)cc32)cc1
[4] CCCCCCNCc1ccc(Cn2c(C3CCNCC3)nc3cc(Cl)c(Cl)cc32)cc1
Let's sort these by MIC, smallest first. Go ahead? Output spec: a listing of the labels in the requested order.
4, 2, 1, 3

[P] NC1CCN(Cc2ccc(Cn3c(C4CCNCC4)nc4cc(Cl)c(Cl)cc43)cc2)CC1
[Q] CCCCCNCc1ccc(Cn2c(C3CCNCC3)nc3cc(Cl)c(Cl)cc32)cc1
Could you please tell me which of these two has the higher MIC: P or Q ? State the label of the item chosen.
P
(P: 12 µM, Q: 6 µM)

---

System: Proteus vulgaris
Test: Antibacterial activity determined against gram-negativeP. vulgaris 8427
Type: functional
experimental.endpoint: MIC (µM)

CCCCCCNCc1ccc(Cn2c(C3CCNCC3)nc3cc(Cl)c(Cl)cc32)cc1 : 12
CCCCCNCc1ccc(Cn2c(C3CCNCC3)nc3cc(Cl)c(Cl)cc32)cc1 : 25
NCCCCCCCCNCc1ccc(Cn2c(C3CCNCC3)nc3cc(Cl)c(Cl)cc32)cc1 : 12
NC1CCN(Cc2ccc(Cn3c(C4CCNCC4)nc4cc(Cl)c(Cl)cc43)cc2)CC1 : 25

[P] Clc1cc2nc(C3CCNCC3)n(Cc3ccc(CNCCc4c[nH]cn4)cc3)c2cc1Cl
[Q] Clc1cc2nc(C3CCNCC3)n(Cc3ccc(CN4CCNCC4)cc3)c2cc1Cl
Look at P and Q . Which one has the lower recorded MIC number? Your answer should be the label of the entry you select.
Q
(Q: 12 µM, P: 25 µM)

---

System: Staphylococcus aureus
Experiment: Antibacterial activity determined against gram-positive Staphylococcus aureus 13709
Assay type: functional
experimental.endpoint: MIC (µM)

NCCCNCc1ccc(Cn2c(C3CCNCC3)nc3cc(Cl)c(Cl)cc32)cc1 : 12
Clc1cc2nc(C3CCNCC3)n(Cc3ccc(CN4CCCNCC4)cc3)c2cc1Cl : 6
NCCNCc1ccc(Cn2c(C3CCNCC3)nc3cc(Cl)c(Cl)cc32)cc1 : 6

[P] NC1CCN(Cc2ccc(Cn3c(C4CCNCC4)nc4cc(Cl)c(Cl)cc43)cc2)CC1
[Q] NCCN(CCN)CCNCc1ccc(Cn2c(C3CCNCC3)nc3cc(Cl)c(Cl)cc32)cc1
Form: Entry with minimum MIC (choose one): P / Q # reply format: chosen label
Q
(Q: 3 µM, P: 6 µM)
